Tested on: KRAS G12V dependent lung adenocarcinoma cell line, NCI-H441
Assay: Cellular pERK (Thr202/Tyr204) FRET/HTRF assay
Format: cell-based
Conditions: Homo sapiens, NCI-H441, cellular pERK (Thr202/Tyr204) HTRF, NCI-H441 cells
Value Kind: IC50

C#Cc1c(F)ccc2cccc(-c3ncc4c(N5CCOC[C@H]6[C@H](F)[C@H]65)nc(OC[C@]56C[C@@H](F)CN5C[C@@H](CN)C6)nc4c3F)c12 :: 0.5 to 10 µM
[2H]C([2H])(Oc1nc(N2CCCC[C@H]3[C@H](Cl)[C@H]32)c2cnc(-c3cc(N)cc4ccc(F)c(C#C)c34)c(F)c2n1)[C@@]12CCCN1C[C@H](F)C2 :: < 0.05 µM

Turning now to a further molecule:
[in] Requested field: IC50. Item: Cc1c(F)c(N)cc(-c2ncc3c(N4CCCC[C@@H]5[C@@H](F)[C@@H]54)nc(OC[C@@]45CCCN4C/C(=C\F)C5)nc3c2F)c1C(F)(F)F
[out] 0.5 to 10 µM

====

Test system: KRAS G12V dependent lung adenocarcinoma cell line, NCI-H441
Test: Cellular pERK (Thr202/Tyr204) FRET/HTRF assay
Type: cell-based
Conditions: Homo sapiens, NCI-H441, cellular pERK (Thr202/Tyr204) HTRF, NCI-H441 cells
Experimental: “Ras” refers to a protein in the Ras superfamily of small GTPases, such as in the Ras subfamily. […] The Ras proteins play a critical role in the regulation of cell behaviors, including proliferation, differentiation, and survival. […] pERK was measured using an advanced pERK assay designed for the robust and highly sensitive quantification of ERK phosphorylation on Thr202/Tyr204. […] The simple mix-and-read protocol eliminates all wash steps for faster analysis and high-quality output. […]
Value Kind: IC50

C#Cc1c(Cl)ccc2cc(N)cc(-c3ncc4c(N5CCOC[C@H]6[C@H](Cl)[C@H]65)nc(OC[C@@H]5CCCN5C)nc4c3F)c12 :: < 0.05 µM
[2H]C([2H])(Oc1nc(N2CCOC[C@@H]3[C@H](Cl)[C@@H]32)c2cnc(-c3cc(N)cc4ccc(F)c(C#C)c34)c(F)c2n1)[C@@]12CCCN1C[C@H](F)C2 :: 0.05 to 0.5 µM
[2H]C([2H])(Oc1nc(N2CCCC[C@H]3[C@H](F)[C@H]32)c2cnc(-c3cc(N)cc4ccc(Cl)c(C#C)c34)c(F)c2n1)[C@@]12CCCN1[C@H](C)[C@H](F)C2 :: < 0.05 µM
C#Cc1cccc2cc(N)cc(-c3ncc4c(N5CCOC[C@@H]6[C@@H](Cl)[C@@H]65)nc(OC[C@@H]5CCCN5C)nc4c3F)c12 :: 0.05 to 0.5 µM
[2H]C([2H])(F)Oc1c(F)ccc2cc(N)cc(-c3ncc4c(N5CCOC[C@H]6[C@H](F)[C@H]65)nc(OC[C@@]56CCCN5C[C@H](C)C6)nc4c3F)c12 (single isomer, unassigned) :: < 0.05 µM

[in] Requested field: IC50. Item: C#Cc1c(F)ccc2cc(N)cc(-c3ncc4c(N5CCOC[C@H]6[C@H](F)[C@H]65)nc(OC[C@]56C[C@@]7(C[C@H]7F)CN5CCC65CC5)nc4c3F)c12 (single isomer, unassigned)
[out] < 0.05 µM

[in] Requested field: IC50. Item: [2H]C([2H])([2H])Oc1c(F)c(F)c(F)c2cc(N)cc(-c3ncc4c(N5CCOC[C@H]6[C@H](F)[C@H]65)nc(OC[C@]56CC(=C)CN5CCC65CC5)nc4c3F)c12
[out] < 0.05 µM

[in] Requested field: IC50. Item: [2H]C([2H])(Oc1nc(N2CCC(=O)C[C@H]3[C@@H](F)[C@H]32)c2cnc(-c3cc(N)cc4cc(F)c(F)c(C#C)c34)c(F)c2n1)[C@@]12CCCN1C[C@H](F)C2
[out] 0.05 to 0.5 µM

[in] Requested field: IC50. Item: [2H]C([2H])(F)Oc1c(F)ccc2cccc(-c3ncc4c(N5CCOC[C@H]6[C@H](F)[C@H]65)nc(OC[C@@]56CCCN5CC(=C(F)F)C6)nc4c3F)c12
[out] < 0.05 µM

[in] Requested field: IC50. Item: C#Cc1c(F)ccc2cc(O)cc(-c3ncc4c(N5CCOC[C@H]6[C@H](F)[C@H]65)nc(OC[C@]56C[C@@H](F)CN5C[C@@H](CN)C6)nc4c3F)c12
[out] 0.05 to 0.5 µM
